tgt: T1, human PCSK9 (human, UniProt Q8NBP7 31-692, limits assumed)
T1 construct: also called hPCSK9; huPCSK9
procedure.details: SPR Biacore 3000, captured IgG, hPCSK9 injected, pH 7.4
reported.metric: pKd
# pKd is unitless: minus log10 of the molar concentration; print number only

5L1724H23_6L3H3 (antibody, V domains shown, Only CDRs printed; Full-length IgG) VH: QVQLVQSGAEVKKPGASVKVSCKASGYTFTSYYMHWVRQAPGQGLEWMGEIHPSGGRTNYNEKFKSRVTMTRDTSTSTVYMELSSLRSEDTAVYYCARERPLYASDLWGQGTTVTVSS VL: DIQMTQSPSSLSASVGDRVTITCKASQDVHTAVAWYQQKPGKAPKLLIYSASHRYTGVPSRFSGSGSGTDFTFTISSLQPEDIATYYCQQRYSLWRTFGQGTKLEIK
7.82
6L1721 (antibody, V domains shown, L1L3-based mutant; Tested as full-length IgG) VH: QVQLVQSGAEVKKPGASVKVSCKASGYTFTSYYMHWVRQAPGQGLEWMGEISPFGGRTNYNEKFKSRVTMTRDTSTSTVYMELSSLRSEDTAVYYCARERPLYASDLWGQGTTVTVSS VL: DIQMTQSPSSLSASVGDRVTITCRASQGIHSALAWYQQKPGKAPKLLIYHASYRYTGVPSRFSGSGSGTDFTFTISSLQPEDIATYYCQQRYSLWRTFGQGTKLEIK
8.66

--- query ---
Challenge: Give its pKd value. Item: 6L21H2335 (antibody, V domains shown) VH: QVQLVQSGAEVKKPGASVKVSCKASGYTFTSYYMHWVRQAPGQGLEWMGEIHPFGGRTNYNEKFKSRVTMTRDTSTSTVYMELSSLRSEDTAVYYCARERPLHASDLWGQGTTVTVSS VL: DIQMTQSPSSLSASVGDRVTITCRASQGISSALAWYQQKPGKAPKLLIYHASYRYTGVPSRFSGSGSGTDFTFTISSLQPEDIATYYCQQRYSLWRTFGQGTKLEIK
Response given: 6.90

From: patent US20150266974A1
